These data points were gathered from patent US20240208912A1.

target: PRMT5/MEP50 complex (Homo sapiens, UniProt O14744); construct: purchased Reaction Biology Corporation; assay: PRMT5:MEP50 FlashPlate Assay (histone H4 peptide substrate, plus and minus MTA); assay type: biochemical; settings: in the absence of MTA, read-out: IC50
Sequence (O14744 2-637 limits assumed): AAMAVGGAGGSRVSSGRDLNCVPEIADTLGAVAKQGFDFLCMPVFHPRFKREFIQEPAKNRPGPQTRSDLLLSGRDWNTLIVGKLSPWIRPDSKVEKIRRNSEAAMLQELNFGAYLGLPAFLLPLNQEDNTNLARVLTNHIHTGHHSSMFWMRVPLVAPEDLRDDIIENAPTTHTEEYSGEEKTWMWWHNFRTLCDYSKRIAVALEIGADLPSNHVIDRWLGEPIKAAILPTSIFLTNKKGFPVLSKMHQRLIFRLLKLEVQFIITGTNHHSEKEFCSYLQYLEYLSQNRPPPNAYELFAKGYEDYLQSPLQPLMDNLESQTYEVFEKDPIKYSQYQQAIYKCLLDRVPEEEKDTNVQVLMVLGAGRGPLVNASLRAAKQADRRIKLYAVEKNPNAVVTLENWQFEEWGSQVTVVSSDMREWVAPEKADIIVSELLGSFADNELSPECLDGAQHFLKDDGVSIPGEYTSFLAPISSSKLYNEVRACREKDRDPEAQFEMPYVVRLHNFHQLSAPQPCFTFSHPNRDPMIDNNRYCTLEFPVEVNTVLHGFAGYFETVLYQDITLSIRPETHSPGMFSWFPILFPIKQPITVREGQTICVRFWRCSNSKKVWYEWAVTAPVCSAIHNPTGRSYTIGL
Sequence (Q9BQA1 2-342 partner limits assumed): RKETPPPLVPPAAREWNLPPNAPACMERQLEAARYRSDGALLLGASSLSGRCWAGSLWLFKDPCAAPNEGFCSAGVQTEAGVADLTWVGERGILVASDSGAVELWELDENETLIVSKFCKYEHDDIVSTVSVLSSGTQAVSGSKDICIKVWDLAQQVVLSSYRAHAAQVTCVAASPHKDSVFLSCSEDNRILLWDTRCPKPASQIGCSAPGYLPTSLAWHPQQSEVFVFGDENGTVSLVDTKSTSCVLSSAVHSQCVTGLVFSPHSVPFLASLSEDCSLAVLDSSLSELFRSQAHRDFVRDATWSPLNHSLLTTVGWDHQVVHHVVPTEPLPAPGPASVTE
Reported IC50 values are given for each entry in this list.
Express your answer in µM, writing the number without its unit.

Consider the worked cases shown below.
COMPOUND	READOUT_NUMBER
Cc1cccc(-c2c(-c3ccc4c(=O)[nH]nc(CN)c4c3)cnn2C)c1 [Example 4-94]	0.033
CCc1cncc(-c2ccc3c(=O)[nH]nc(CN)c3c2)c1 [Example 3-13]	0.42

Kindly review the next compound as well.
Find IC50 (PRMT5/MEP50 complex (Homo sapiens, UniProt O14744)) for the entry COc1cccc(-c2c(-c3ccc4c(=O)[nH]nc(CN)c4c3)cnn2C)c1 [Example 4-93]
0.035
